Molecular target: phospho-Ser520-DYRK1A (Homo sapiens, UniProt Q13627)
Construct: full-length, wild-type human DYRK1A (NM_001396) with an HA tag; expressed in transfected cells; host or cells: human U2-OS osteosarcoma cells, pcDNA3.1 plasmid
Test: Cellular DYRK1A autophosphorylation assay in U2-OS cells
Format: cell-based
Conditions: 5 hours exposure, read-out: IC50 (μM) P-Ser520-Dyrk1A-Cell assay
Criterion: IC50 strictly under 0.02 µM. Met: MET. Not met: NOT MET.

Example entries begin here.
MOL: Cc1nc(C#CC2CC2)c2c(-c3ccnc(N)c3)c[nH]c2n1
CLASS_LABEL: NOT MET
--
MOL: C#Cc1nc(NCc2c(F)cccc2F)c2c(-c3ccnc(N)c3)c[nH]c2n1
CLASS_LABEL: NOT MET
--
MOL: Cc1nc(NCc2c(C)noc2C)c2c(-c3ccnc(N)c3)c[nH]c2n1
CLASS_LABEL: NOT MET
--
MOL: Cc1nc(NCc2cccc3c2OCO3)c2c(-c3cc(N)nc(N)c3)c[nH]c2n1
CLASS_LABEL: MET
--
MOL: Cc1nc(/C=C/c2ccccc2)c2c(-c3ccnc(N)c3)c[nH]c2n1
CLASS_LABEL: MET

Given Cc1nc(NCc2c(F)cccc2F)c2c(-c3cc(N)nc(N)c3)c[nH]c2n1 , is recorded IC50 strictly lower than 0.02 µM?
MET

Consider the molecule Cc1nc(NCc2ccccc2C(F)(F)F)c2c(-c3ccnc(N)c3)c[nH]c2n1 . Is its IC50 strictly less than 0.02 µM?
NOT MET

Take the molecule Cc1nc(-c2ccc3c(c2)OCO3)c2c(-c3ccnc(N)n3)c[nH]c2n1 and say whether its IC50 is less than 0.02 µM.
NOT MET

---

In this section, each of the compounds is paired with its reported IC50.
Molecular target: His-TEV-DYRK1A Kinase domain (aa127-485) (Homo sapiens, UniProt Q13627)
Construct: His-TEV-DYRK1A Kinase domain (aa127-485); His (N); TEV cleavage site (N)
Assay: Kinase ADP assay (ADP Hunter Plus)
Format: biochemical
Write it as a number; the unit µM goes unstated.

COMPOUND: Cc1cc(-c2ccc3c(c2)N(C)CCO3)c2c(-c3ccnc(N)c3)c[nH]c2n1
IC50, µM: 0.037

For the compound Cc1nc(OC(C)c2ccccc2)c2c(-c3ccnc(N)c3)c[nH]c2n1 (stereo not drawn) , what IC50 is on record?
0.013

# get_value(readout='IC50', item= Cc1nc(-c2ccc(CN3CCN(C)CC3)cc2)c2c(-c3ccnc(N)c3)c[nH]c2n1 )
0.216

Returns the measured IC50 for the input compound. Input: Cc1nc(NCc2cncs2)c2c(-c3ccnc(N)c3)c[nH]c2n1
0.158

Which IC50 reading was recorded for the compound Cc1nc(NCc2c(F)cncc2F)c2c(-c3ccnc(N)c3)c[nH]c2n1 ?
0.02

Request the reported IC50 associated with Cc1nc(OCc2ccccc2)c2c(-c3ccncc3)c[nH]c2n1
0.012

Please report the recorded IC50 for Cc1nc(NCc2cc(Cl)ccc2Cl)c2c(-c3ccnc(N)c3)c[nH]c2n1 .
0.087

# get_value(readout='IC50', item= Cc1cc(-c2c[nH]c3nc(C)nc(NCc4ccccc4)c23)ccn1 )
0.278

IC50 lookup needed for COc1cccc(F)c1CNc1nc(C)nc2[nH]cc(-c3cc(N)nc(N)c3)c12 , thanks.
0.005

Can you share its IC50? I mean this compound: Cc1nc(Nc2ccccc2C(F)(F)F)c2c(-c3cc(N)nc(N)c3)c[nH]c2n1
0.6

# IC50 lookup, item Cc1cc(-c2c[nH]c3nc(C)nc(NCc4ccsc4)c23)ccn1
0.496

Fill in: IC50 of Cc1nc(NCc2ccc(F)cc2C(F)(F)F)c2c(-c3ccnc(N)c3)c[nH]c2n1 is ___
0.037

---

Biological target: DYRK1A (Homo sapiens, UniProt Q13627)
Construct: full-length human kinases from Carna Biosciences; purchased Carna Biosciences 04-130
Experiment: Kinase TR-FRET assay, DYRK1A
Assay type: biochemical
Item-by-item account of IC50
Respond numerically; units are µM and should not be typed.

Below, 3 molecules whose answers are already recorded.
MOLECULE: Cc1nc(-c2cc3ccccc3s2)c2c(-c3ccnc(N)n3)c[nH]c2n1 [Example 207]
TARGET_UNDER_TEST: DYRK1A (Homo sapiens, UniProt Q13627)
METRIC_NAME: IC50
READOUT_UNIT: µM
NUMERIC_READOUT: 0.0049
//
MOLECULE: Cc1nc(N2CCc3ccccc3C2)c2c(-c3ccnc(N)c3)c[nH]c2n1 [Example 96]
TARGET_UNDER_TEST: DYRK1A (Homo sapiens, UniProt Q13627)
METRIC_NAME: IC50
READOUT_UNIT: µM
NUMERIC_READOUT: 0.0023
//
MOLECULE: Cc1nc(NCc2cccc(Cl)c2C)c2c(-c3ccnc(N)c3)c[nH]c2n1 [Example 94]
TARGET_UNDER_TEST: DYRK1A (Homo sapiens, UniProt Q13627)
METRIC_NAME: IC50
READOUT_UNIT: µM
NUMERIC_READOUT: 0.0077

Reported IC50 for Cc1nc(NCc2c(F)cccc2Cl)c2c(-c3ccnc(N)c3)c[nH]c2n1 [Example 62] : what is it?
0.0186

May I ask what IC50 has been recorded for Cc1nc(NCc2ccc3cc[nH]c3c2)c2c(-c3ccnc(N)c3)c[nH]c2n1 [Example 72] ?
0.021

Reported IC50, molecule Cc1nc(OCc2cc(C)on2)c2c(-c3ccncc3)c[nH]c2n1 [Example 16] : ____
0.0149

Give its IC50 value. Item: Cc1nc(OCC2CCCC2)c2c(-c3ccncc3)c[nH]c2n1 [Example 15]
0.0355

Consider the molecule shown here: Cc1nc(NC(C)c2ccccn2)c2c(-c3ccnc(N)c3)c[nH]c2n1 (stereo not drawn) [Example 66] What is its recorded IC50?
0.0107

Dear colleague, I am looking for the recorded IC50 of the following molecule: Cc1nc(NCc2ccc(F)cc2F)c2c(-c3ccnc(N)c3)c[nH]c2n1 [Example 63]
0.0107

Return reported IC50; argument: Cc1nc(NCc2c(C)noc2C)c2c(-c3ccnc(N)c3)c[nH]c2n1 [Example 95]
0.0979

Given Cc1nc(NCc2ccc(F)cc2C(F)(F)F)c2c(-c3ccnc(N)c3)c[nH]c2n1 [Example 75] , state its recorded IC50.
0.0143

Query: IC50; subject: Cc1nc(NCc2ccccn2)c2c(-c3ccnc(N)c3)c[nH]c2n1 [Example 53]
0.0233

Tell me the measured IC50 of C#Cc1nc(NCc2c(F)cccc2F)c2c(-c3ccnc(N)c3)c[nH]c2n1 [Example 148] , please.
0.0042

Look up IC50 for this molecule: Cc1nc(NCc2ccccc2F)c2c(-c3ccnc(N)c3)c[nH]c2n1 [Example 51]
0.0029

Query (molecule): Cc1nc(NCc2ccccc2C(F)(F)F)c2c(-c3ccnc(N)c3)c[nH]c2n1 [Example 64] ; field requested: IC50
0.0059

Given the entry Cc1nc(NCc2c(F)cccc2F)c2c(-c3cc(N)nc(N)c3)c[nH]c2n1 [Example 115] , report its measured IC50.
0.0031

Record request: IC50 value, item Cc1nc(NCc2ccccc2C)c2c(-c3ccnc(N)c3)c[nH]c2n1 [Example 56]
0.0114

Data request, read-out IC50, for Cc1nc(N[C@@H]2C[C@H]3CC[C@@H]2C3)c2c(-c3ccnc(N)c3)c[nH]c2n1 [Example 83]
0.0006

---

Target: CLK1 (Homo sapiens)
Construct: full-length human kinases from Carna Biosciences; purchased Carna Biosciences 04-126
Sequence (P49759 1-526 isoform P49759-3): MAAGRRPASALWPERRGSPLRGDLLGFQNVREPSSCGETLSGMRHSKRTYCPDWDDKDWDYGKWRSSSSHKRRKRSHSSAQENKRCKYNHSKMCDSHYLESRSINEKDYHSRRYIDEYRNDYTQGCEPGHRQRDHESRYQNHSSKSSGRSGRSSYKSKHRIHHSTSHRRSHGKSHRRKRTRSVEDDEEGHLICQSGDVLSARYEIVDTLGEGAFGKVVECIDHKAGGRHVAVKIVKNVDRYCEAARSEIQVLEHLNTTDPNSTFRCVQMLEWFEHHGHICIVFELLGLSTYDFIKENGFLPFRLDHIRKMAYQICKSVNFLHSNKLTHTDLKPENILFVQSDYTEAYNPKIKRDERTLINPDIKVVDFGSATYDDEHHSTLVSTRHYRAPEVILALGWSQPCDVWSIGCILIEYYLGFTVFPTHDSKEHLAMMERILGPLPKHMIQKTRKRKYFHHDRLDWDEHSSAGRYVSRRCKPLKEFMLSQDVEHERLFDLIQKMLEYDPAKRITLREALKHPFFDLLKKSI
Test: Kinase TR-FRET assay, CLK1
Format: biochemical
METRIC_NAME: log10(IC50) (log10 of the value in µM)
A difference of one corresponds to tenfold IC50; all values are log10 with IC50 in µM.

Check out these entries, answers already filled in.
MOLECULE: Cc1nc(-c2cc3ccccc3n2C)c2c(-c3ccnc(N)c3)c[nH]c2n1 [Example 186]
log10(IC50): -1.03

MOLECULE: Cc1nc(NCc2ccccc2Cl)c2c(-c3ccnc(N)c3)c[nH]c2n1 [Example 57]
log10(IC50): -1.63

MOLECULE: Cc1nc(NCC(F)(F)c2ccccc2)c2c(-c3ccnc(N)c3)c[nH]c2n1 [Example 123]
log10(IC50): -1.21

MOLECULE: Nc1cc(-c2c[nH]c3nc(C#CC4CC4)cc(NCc4c(F)cccc4F)c23)ccn1 [Example 216]
log10(IC50): -0.92

MOLECULE: Cc1nc(OCc2ccc(C#N)cc2)c2c(-c3ccnc(N)c3)c[nH]c2n1 [Example 25]
log10(IC50): -1.75

What value of measured log10(IC50) is listed for Cc1nc(NCc2c(F)cncc2F)c2c(-c3ccnc(N)c3)c[nH]c2n1 [Example 119] ?
-1.08

What value of measured log10(IC50) is listed for Cc1nc(C2=Cc3ccccc3CC2)c2c(-c3ccnc(N)c3)c[nH]c2n1 [Example 187] ?
-1.19

Given the entry Cc1nc(NCc2cccc(F)c2F)c2c(-c3ccnc(N)c3)c[nH]c2n1 [Example 74] , report its measured log10(IC50).
-1.74

Recorded log10(IC50) of Cc1nc(N2CCC3CCCCC3C2)c2c(-c3ccnc(N)c3)c[nH]c2n1 (stereo not drawn) [Example 104] , please.
-1.65

Endpoint output: log10(IC50) of Cc1nc(-c2cc3ccccc3[nH]2)c2c(-c3ccnc(N)c3)c[nH]c2n1 [Example 161] . Value?
-0.91
